Provenance of the data: patent US20030105278A1

# TARGET: T1, human MCH receptor (membranes from a stable CHO or HEK-293 cell line) (human, UniProt Q99705 1-353)
# T1 construct: whole, on cells; also called cloned human MCH receptor (CHO clone)
# T1 sequence (Q99705 whole entry): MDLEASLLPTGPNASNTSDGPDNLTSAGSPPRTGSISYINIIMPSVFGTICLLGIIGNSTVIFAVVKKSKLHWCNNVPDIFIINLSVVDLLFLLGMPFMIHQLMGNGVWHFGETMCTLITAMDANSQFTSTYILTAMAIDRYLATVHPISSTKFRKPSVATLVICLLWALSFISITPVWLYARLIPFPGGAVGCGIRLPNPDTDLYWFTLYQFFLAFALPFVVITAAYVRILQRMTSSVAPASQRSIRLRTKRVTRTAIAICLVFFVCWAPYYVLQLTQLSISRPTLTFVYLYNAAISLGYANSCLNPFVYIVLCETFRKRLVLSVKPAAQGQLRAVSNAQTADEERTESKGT
# TEST PROTOCOL: competition vs [125I]-human MCH (Phe13,Tyr19); human MCH receptor cell membranes (Example 3)
Bridges are numbered along the chain shown (N, C = ends).
Record form. Attribute: IC50. Fill in for each entry.
Numbers only, in pM.

BINDER | IC50 [pM]
XCMLGRVYRPC (D-Arg^6; N-terminal acetyl, C-terminal amide, Cys-Cys disulfide as in SEQ. ID. NO. 7, ID; NO; 7 peptide; MCH position numbering) [MCH analog SEQ. ID. NO. 15 (D-Arg^6)] | 460

Shifting focus to the binder that follows.
Ask: Look up IC50: Ac-RCMLGRVYRPC-NH2 (disulfide 2-11 (inferred), Corresponds to MCH positions 6-16; also called ID; NO; 7 MCH analog) [truncated MCH analog SEQ. ID. NO. 7: Ac-Arg-Cys-Met-Leu-Gly-Arg-Val-Tyr-Arg-Pro-Cys-amide]
Reply: 500
